Provide the reported fold activation, T-cell proliferation, 22 nM, non-anchored, donor 3 of each item.
Biological target: T1, human GITR (amino acids M1-V241, NCBI Accession #NP_004186.1) expressed on cells (human, UniProt Q9Y5U5 26-241)
T1 sequence: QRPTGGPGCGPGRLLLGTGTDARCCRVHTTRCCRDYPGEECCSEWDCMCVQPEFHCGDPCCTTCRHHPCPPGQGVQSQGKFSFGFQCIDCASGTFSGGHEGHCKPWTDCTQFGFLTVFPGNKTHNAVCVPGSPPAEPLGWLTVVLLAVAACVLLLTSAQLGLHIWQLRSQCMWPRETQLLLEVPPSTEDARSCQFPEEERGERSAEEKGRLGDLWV
Test: cell-based or functional assay
A complete answer gives the number and then names the unit.

Study these solved cases before continuing.
H4H14525P (antibody, human IgG4, V domains shown, human IgG4 (H4H)) VH: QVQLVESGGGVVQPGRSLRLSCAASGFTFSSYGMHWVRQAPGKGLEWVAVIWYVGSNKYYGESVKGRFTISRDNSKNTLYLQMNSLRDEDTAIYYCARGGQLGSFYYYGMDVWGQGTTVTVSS VL: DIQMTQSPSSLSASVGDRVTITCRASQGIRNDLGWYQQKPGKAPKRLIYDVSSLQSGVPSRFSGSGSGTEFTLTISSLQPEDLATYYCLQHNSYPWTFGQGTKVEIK : 0.9 fold
H4H14521P (antibody, human IgG4, V domains shown, human IgG4 (H4H)) VH: EVQLVESGGGLVQPGGSLRLSCAASGFTFRVYEMNWVRQAPGKGLEWISYIGSSGFTIYYADSVKGRFTISRDNAKNSLFLQLNSLRAEDTAVYYCARGWNDGVPNYLGMDVWGQGTTVTVSS VL: DIQMTQSPSSLSASVGDRVTITCQASQDINKYLNWYQQKPGKAPKLLIYDASNLETGVPSRFSGSGSGTDFTFTISSLQPEDIARYHCQQYDKIPLTFGGGTKVEIK : 0.8 fold

Please examine the following record next.
fold activation, T-cell proliferation, 22 nM, non-anchored, donor 3 measured on H4H14476P (antibody, human IgG4, V domains shown, human IgG4 (H4H)) VH: QVQLVESGGGVVQPGRSLRLSCAASGFTFSNYGIHWVRQPPGQGLEWVAVIWYAGSNKFYADSVKGRFTISRDNSKNSAYLQMNSLRAEDTAVYYCARAPLGYYYYGMDVWGQGTTVTVSS VL: DIQMTQSPSSLSASVGDRVTITCRASQGIRNDLGWYQQKPGKAPKRLIYDASSLESGVPSRFSGSGSGTEFTLTISSLQPEDFATYYCLQHNSYPWTFGQGTKVEIK = 0.9 fold

Cited source: patent US20170355774A1
